# Target Desc: IRAK4 (Homo sapiens (Human), UniProt Q9NWZ3)
# Sequence (Q9NWZ3 whole entry): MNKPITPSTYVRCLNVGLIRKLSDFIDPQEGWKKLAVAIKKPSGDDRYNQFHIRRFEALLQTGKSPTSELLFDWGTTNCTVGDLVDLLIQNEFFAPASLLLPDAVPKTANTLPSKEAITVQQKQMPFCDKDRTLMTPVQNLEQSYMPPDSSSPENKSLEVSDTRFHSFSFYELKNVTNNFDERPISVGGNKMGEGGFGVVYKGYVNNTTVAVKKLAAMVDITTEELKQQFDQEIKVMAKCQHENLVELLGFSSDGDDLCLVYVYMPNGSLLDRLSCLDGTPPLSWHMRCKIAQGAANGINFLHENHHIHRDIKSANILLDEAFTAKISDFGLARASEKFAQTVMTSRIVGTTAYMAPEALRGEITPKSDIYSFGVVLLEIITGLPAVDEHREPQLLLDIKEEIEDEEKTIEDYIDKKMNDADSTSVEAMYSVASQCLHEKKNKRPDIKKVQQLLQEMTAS
# Protocol Details: IRAK4 MSD degradation in OCI-LY10
# Format: cell-based
# Reported Conditions: OCI-LY10, 4 hrs, MSD; read-out: IRAK4 MSD degradation in OCI-LY10 at 4 hrs: Average external-Abs DC50
# DC50 values compiled below

CN(CCCOCCCNc1cccc2c1C(=O)N(C1CCC(=O)NC1=O)C2=O)C[C@H]1CC[C@H](n2cc(N(C)C(=O)c3coc(-c4ccnc(NCC5CC5)c4)n3)c(C(F)F)n2)CC1 (stereo partly drawn)    100 to 1000 nM
Cn1c(=O)n(C2CCC(=O)NC2=O)c2cccc(CN3CCC(CN4CCC(n5cc(NC(=O)c6coc(-c7ccnc(NCC8CC8)c7)n6)c(C(F)F)n5)CC4)CC3)c21 (stereo not drawn)    10 to 100 nM

Okay, now this molecule:
Recorded DC50 for Cn1c(=O)n(C2CCC(=O)NC2=O)c2cccc(CCCOCCOCCNC(=O)[C@H]3CC[C@@H](n4cc(NC(=O)c5coc(-c6ccnc(NCC7CC7)c6)n5)c(C(F)F)n4)CC3)c21 (stereo partly drawn) , please?
10 to 100 nM

###

# Target Desc: IRAK4 (Homo sapiens (Human))
# Protocol Details: IRAK4 MSD degradation in OCI-LY10
# Format: cell-based
# Reported Conditions: OCI-LY10, 4 hrs; read-out: IRAK4 MSD degradation in OCI-LY10 at 4 hrs: DC50
# Protocol: Degradation of IRAK4 in OCI-LY10 was quantitatively measured using Meso Scale Discovery technology. […] Compounds were then added to the assay plates with a final top concentration of 1 to 10 μM in a 1:3 dilution series with total of 8 doses. […] The assay plates were then incubated at room temperature for 1 hour, washed 3 times with 150 μL/well TB ST buffer, and 150 μL/well MSD reading buffer (Meso Scale Discovery catalog number R92TC-2) was added. […]
Property: DC50

// below: answered compounds
Cn1c(=O)n(C2CCC(=O)NC2=O)c2cccc(CCCC3CCN(C[C@H]4CC[C@H](C5N=C(NC(=O)c6cnn7ccc(N8CCOC9(CCC9)C8)nc67)C(C(F)F)=N5)CC4)CC3)c21 (stereo partly shown) [I-538]    10 to 100 nM
Cn1c(=O)n(C2CCC(=O)NC2=O)c2cccc(C#CCC3CCN(C[C@H]4CC[C@H](C5N=C(NC(=O)c6cnn7ccc(N8CCOC(C)(C)C8)cc67)C(C(F)F)=N5)CC4)CC3)c21 (stereo partly shown) [I-532]    10 to 100 nM
O=C1CCC(N2C(=O)c3cccc(NCCCOC4CCN(C[C@H]5OC[C@H](n6cc(NC(=O)c7cnn8ccc(N9CCOCC9)nc78)c(C(F)F)n6)CO5)CC4)c3C2=O)C(=O)N1 (stereo partly shown) [I-451]    10 to 100 nM
Cn1c(=O)n(C2CCC(=O)NC2=O)c2cccc(C#CCN3CCC4(CC3)CN(C[C@H]3CC[C@H](n5cc(NC(=O)c6cnn7ccc(N8C[C@H]9C[C@@H]8CO9)nc67)c(C(F)F)n5)CC3)C4)c21 (stereo partly shown) [I-485]    10 to 100 nM

Turning now to a further compound:
Look at this compound and give its reported DC50. CN(CCCO[C@H]1C[C@H](Nc2cccc3c2C(=O)N(C2CCC(=O)NC2=O)C3=O)C1)C[C@H]1CC[C@H](n2cc(NC(=O)c3cnn4ccc(N5C[C@H]6C[C@@H]5CO6)nc34)c(C(F)F)n2)CC1 (stereo partly shown) [I-444]
100 to 1000 nM

Data origin, for the record: patent US11352350B2
